The reported numbers originate from patent US9187471B2.

# Assayed system: human recombinant adrenergic α2C receptor (Homo sapiens)
# Construct: expressed in transfected cells; host or cells: insect Sf9 cells
# Sequence (P18825 whole entry): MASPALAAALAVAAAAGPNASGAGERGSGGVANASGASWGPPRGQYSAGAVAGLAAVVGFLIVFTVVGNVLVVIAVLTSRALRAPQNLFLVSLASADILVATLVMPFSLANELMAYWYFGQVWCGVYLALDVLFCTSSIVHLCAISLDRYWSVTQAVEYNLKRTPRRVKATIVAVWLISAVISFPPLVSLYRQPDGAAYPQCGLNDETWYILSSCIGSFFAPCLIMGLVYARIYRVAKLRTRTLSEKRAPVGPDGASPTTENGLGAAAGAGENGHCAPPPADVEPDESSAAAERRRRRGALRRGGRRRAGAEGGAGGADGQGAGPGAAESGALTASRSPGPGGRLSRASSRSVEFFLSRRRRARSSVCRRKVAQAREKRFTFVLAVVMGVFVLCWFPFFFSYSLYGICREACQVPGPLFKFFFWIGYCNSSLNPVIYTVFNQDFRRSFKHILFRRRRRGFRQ
# Protocol: Adrenergic α2C radioligand binding ([3H]MK-912)
# Condition label: read-out: Adrenergic (0.1 μM) a2C, percent inhibition of specific binding; compound at 0.1 μM; 1 nM [3H]MK-912

| Structure string | Assayed system | inhibition at 0.1 µM / % |
| --- | --- | --- |
| Cc1ccc2c(c1)c1c(n2-c2ccc(-c3ccc(F)nc3)cn2)CCN(C)C1 | human recombinant adrenergic α2C receptor (Homo sapiens) | 5 |
| Cc1ccc2c(c1)c1c(n2-c2cscc2-c2ccc3cnccc3c2)CCN(C)C1 | human recombinant adrenergic α2C receptor (Homo sapiens) | 29 |
| Cc1ccc2c(c1)c1c(n2-c2cccc(-c3cc4ccccc4s3)c2)CCN(C)C1 | human recombinant adrenergic α2C receptor (Homo sapiens) | -9 |
| Cc1ccc2c(c1)c1c(n2-c2cccc(-c3ccc4c(ccn4C)c3)c2)CCN(C)C1 | human recombinant adrenergic α2C receptor (Homo sapiens) | 7 |

###

# Assayed system: human recombinant histamine H1 receptor (Homo sapiens, UniProt P35367)
# Construct: expressed in transfected cells; host or cells: CHO-K1
# Sequence (P35367 whole entry): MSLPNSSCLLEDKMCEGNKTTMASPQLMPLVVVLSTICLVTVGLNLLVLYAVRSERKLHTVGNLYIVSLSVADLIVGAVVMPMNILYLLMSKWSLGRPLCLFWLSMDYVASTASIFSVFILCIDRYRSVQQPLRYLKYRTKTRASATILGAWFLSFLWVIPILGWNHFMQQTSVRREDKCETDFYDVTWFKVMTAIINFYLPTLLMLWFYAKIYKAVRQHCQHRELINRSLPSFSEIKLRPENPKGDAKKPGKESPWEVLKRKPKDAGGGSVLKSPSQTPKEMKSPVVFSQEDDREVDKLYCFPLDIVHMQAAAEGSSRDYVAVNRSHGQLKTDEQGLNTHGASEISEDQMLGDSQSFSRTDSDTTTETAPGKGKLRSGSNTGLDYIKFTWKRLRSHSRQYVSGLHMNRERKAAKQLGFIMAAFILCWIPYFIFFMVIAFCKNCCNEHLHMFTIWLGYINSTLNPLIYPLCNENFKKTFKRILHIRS
# Protocol: Histamine H1 radioligand binding ([3H]Pyrilamine)
# Condition label: read-out: Histamine H1 Binding (1 μM), percent inhibition of specific binding; compound at 1 μM; 1.2 nM [3H]Pyrilamine
Recorded inhibition at 1 µM, one value per entry.

| Structure string | Assayed system | inhibition at 1 µM, % |
| --- | --- | --- |
| Cc1ccc2c(c1)c1c(n2-c2ccccc2-c2cc3ccccc3s2)CCN(C)C1 | human recombinant histamine H1 receptor (Homo sapiens, UniProt P35367) | 10 |
| Cc1ccc2c(c1)c1c(n2-c2cccc(-c3ccc(S(N)(=O)=O)cc3)c2)CCN(C)C1 | human recombinant histamine H1 receptor (Homo sapiens, UniProt P35367) | 1 |
| Cc1cc(C)c2c(c1)c1c(n2-c2cscc2-c2ccncc2)CCN(C)C1 | human recombinant histamine H1 receptor (Homo sapiens, UniProt P35367) | -5 |
| Cc1ccc2c(c1)c1c(n2-c2ccncc2)CCN(C)C1 | human recombinant histamine H1 receptor (Homo sapiens, UniProt P35367) | 51 |
| Cc1ccc2c(c1)c1c(n2-c2ccccc2-c2ccc(F)cc2)CCN(C)C1 | human recombinant histamine H1 receptor (Homo sapiens, UniProt P35367) | 82 |
| Cc1ccc2c(c1)c1c(n2-c2ccc(-c3cccc4ccccc34)cn2)CCN(C)C1 | human recombinant histamine H1 receptor (Homo sapiens, UniProt P35367) | 11 |
| Cc1ccc2c(c1)c1c(n2-c2cscc2-c2ccc(F)cc2)CCN(C)C1 | human recombinant histamine H1 receptor (Homo sapiens, UniProt P35367) | 72 |
| Cc1ccc2c(c1)c1c(n2-c2ccc(-c3ccc4c(ccn4C)c3)cn2)CCN(C)C1 | human recombinant histamine H1 receptor (Homo sapiens, UniProt P35367) | 5 |
| Cc1ccc2c(c1)c1c(n2-c2cscc2-c2sccc2C)CCN(C)C1 | human recombinant histamine H1 receptor (Homo sapiens, UniProt P35367) | 58 |
| Cc1ccc2c(c1)c1c(n2-c2cccc3ccncc23)CCN(C)C1 | human recombinant histamine H1 receptor (Homo sapiens, UniProt P35367) | 31 |
| Cc1ccc2c(c1)c1c(n2-c2cscc2-c2ccncc2)CCN(C)C1 | human recombinant histamine H1 receptor (Homo sapiens, UniProt P35367) | 42 |
| Cc1ccc2c(c1)c1c(n2-c2ccc(-c3sccc3C)cn2)CCN(C)C1 | human recombinant histamine H1 receptor (Homo sapiens, UniProt P35367) | 5 |
| Cc1ccc2c(c1)c1c(n2-c2ccccc2-c2ccc(C)nc2)CCN(C)C1 | human recombinant histamine H1 receptor (Homo sapiens, UniProt P35367) | 27 |
| Cc1ccc2c(c1)c1c(n2-c2ccccc2-c2ccc(C)s2)CCN(C)C1 | human recombinant histamine H1 receptor (Homo sapiens, UniProt P35367) | 57 |
| Cc1ccc2c(c1)c1c(n2-c2ccccc2-c2ccnn2C)CCN(C)C1 | human recombinant histamine H1 receptor (Homo sapiens, UniProt P35367) | 22 |
| Cc1ccc2c(c1)c1c(n2-c2cccc(-c3sccc3C)c2)CCN(C)C1 | human recombinant histamine H1 receptor (Homo sapiens, UniProt P35367) | 26 |
| CNC(=O)c1cc(-n2c3c(c4cc(C)ccc42)CN(C)CC3)cs1 | human recombinant histamine H1 receptor (Homo sapiens, UniProt P35367) | 13 |
| Cc1ccc2c(c1)c1c(n2-c2cccc(-c3ccnn3C)c2)CCN(C)C1 | human recombinant histamine H1 receptor (Homo sapiens, UniProt P35367) | 43 |
| Cc1ccc2c(c1)c1c(n2-c2cscc2-c2ccc3c(ccn3C)c2)CCN(C)C1 | human recombinant histamine H1 receptor (Homo sapiens, UniProt P35367) | -7 |
| Cc1ccc2c(c1)c1c(n2-c2ccccc2-c2cnc(N(C)C)nc2)CCN(C)C1 | human recombinant histamine H1 receptor (Homo sapiens, UniProt P35367) | 3 |
| Cc1ccc2c(c1)c1c(n2-c2ccc(-c3ccnn3C)cn2)CCN(C)C1 | human recombinant histamine H1 receptor (Homo sapiens, UniProt P35367) | 8 |
| Cc1ccc2c(c1)c1c(n2-c2ccc(-c3ccc(F)nc3)cn2)CCN(C)C1 | human recombinant histamine H1 receptor (Homo sapiens, UniProt P35367) | 7 |
| Cc1ccc2c(c1)c1c(n2-c2ccccc2-c2cccc3[nH]ncc23)CCN(C)C1 | human recombinant histamine H1 receptor (Homo sapiens, UniProt P35367) | 34 |
| Cc1ccc2c(c1)c1c(n2-c2cccc(N(C)C)c2)CCN(C)C1 | human recombinant histamine H1 receptor (Homo sapiens, UniProt P35367) | 43 |
| Cc1ccc2c(c1)c1c(n2-c2cscc2-c2ccc(S(C)(=O)=O)cc2)CCN(C)C1 | human recombinant histamine H1 receptor (Homo sapiens, UniProt P35367) | 19 |
| Cc1ccc2c(c1)c1c(n2-c2ccccc2-c2ccc(F)nc2)CCN(C)C1 | human recombinant histamine H1 receptor (Homo sapiens, UniProt P35367) | 26 |
| Cc1ccc2c(c1)c1c(n2-c2cscc2-c2c(C)noc2C)CCN(C)C1 | human recombinant histamine H1 receptor (Homo sapiens, UniProt P35367) | 27 |
| Cc1csc(-c2cccc(-n3c4c(c5cc(C)ccc53)CN(C)CC4)c2)c1 | human recombinant histamine H1 receptor (Homo sapiens, UniProt P35367) | 31 |
| Cc1ccc2c(c1)c1c(n2-c2ccoc2)CCN(C)C1 | human recombinant histamine H1 receptor (Homo sapiens, UniProt P35367) | 80 |
| Cc1ccc2c(c1)c1c(n2-c2cccc(-c3ccc(C)nc3)c2)CCN(C)C1 | human recombinant histamine H1 receptor (Homo sapiens, UniProt P35367) | 32 |
| Cc1ccc2c(c1)c1c(n2-c2cscc2-c2cc3ccccc3s2)CCN(C)C1 | human recombinant histamine H1 receptor (Homo sapiens, UniProt P35367) | 11 |
| Cc1csc(-c2cscc2-n2c3c(c4cc(C)ccc42)CN(C)CC3)c1 | human recombinant histamine H1 receptor (Homo sapiens, UniProt P35367) | 54 |
| Cc1ccc2c(c1)c1c(n2-c2cccc(-c3ccc4c(ccn4C)c3)c2)CCN(C)C1 | human recombinant histamine H1 receptor (Homo sapiens, UniProt P35367) | 18 |
| CNC(=O)c1ccc(-c2cccc(-n3c4c(c5cc(C)ccc53)CN(C)CC4)c2)cn1 | human recombinant histamine H1 receptor (Homo sapiens, UniProt P35367) | 19 |
